The reported measurements were obtained from ChEMBL document CHEMBL1149647.

species on record: Homo sapiens; assay: Selectivity for TACE over MMP13

# COMPOUND, CENSORING_OPERATOR, Selectivity ratio
measured = [
    ("CC#CCNc1ccc(S(=O)(=O)CC2(C(=O)NO)CCN(C(=O)OC(C)(C)C)CC2)cc1", ">", 400),
    ("CC#CCNc1ccc(S(=O)(=O)CC2(C(=O)NO)CCN(C(=O)N(CC)CC)CC2)cc1", ">", 750),
    ("CC#CCOc1ccc(S(=O)(=O)CC2(C(=O)NO)CCN(S(=O)(=O)C(C)C)CC2)cc1", "=", 52),
    ("CC#CCNc1ccc(S(=O)(=O)CC2(C(=O)NO)CCN(C(=O)c3ccccc3C)CC2)cc1", "=", 499),
    ("CC#CC(C)Oc1ccc(S(=O)(=O)CC2(C(=O)NO)CCN(S(=O)(=O)C(C)C)CC2)cc1 (stereo not given)", "=", 720),
]
